Values compiled from patent US6509358B2.

target: human β3-AR (Homo sapiens)
Construct: Full-length β3-AR clones (402 amino acids) containing the last 6 amino acids of hβ3-AR
Sequence (P13945 whole entry): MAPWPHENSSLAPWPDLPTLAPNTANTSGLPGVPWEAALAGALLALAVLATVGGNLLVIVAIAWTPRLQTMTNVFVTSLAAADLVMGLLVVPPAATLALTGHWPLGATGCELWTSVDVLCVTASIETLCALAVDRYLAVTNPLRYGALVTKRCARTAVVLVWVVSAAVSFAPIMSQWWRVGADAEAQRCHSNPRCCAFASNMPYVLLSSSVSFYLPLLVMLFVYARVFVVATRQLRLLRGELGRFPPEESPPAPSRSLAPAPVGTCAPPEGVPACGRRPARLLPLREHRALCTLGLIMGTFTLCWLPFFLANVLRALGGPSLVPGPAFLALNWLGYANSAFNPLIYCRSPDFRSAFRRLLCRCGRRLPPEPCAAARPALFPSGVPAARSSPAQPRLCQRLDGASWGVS
run-description: cAMP accumulation (SPA) in CHO cells transfected with human β3-AR
run-parameters: CHO cells transfected with human β3-AR; cAMP, 30 min at 37° C., 10^-9 M to 10^-5 M
pEC50: −log10 of the molar value.
# binarize pEC50: threshold 7 inclusive, high side TRUE, low side FALSE

Worked cases, answers included:
{"molecule": "O=S1(=O)N=C(NCCc2ccc(F)cc2)C(Nc2ccc(N3CCC(NC[C@H](O)COc4ccc(O)cc4)CC3)cc2)=N1", "assigned-label": "TRUE"}
{"molecule": "COC(=O)[C@@H](Cc1ccccc1)Nc1c(Nc2ccc(N3CCC(NC[C@H](O)c4ccc(O)c(NS(C)(=O)=O)c4)CC3)cc2)c(=O)c1=O", "assigned-label": "FALSE"}
{"molecule": "COC(=O)C(Cc1ccccc1)NC1=NS(=O)(=O)N=C1Nc1ccc(N2CCC(NCC(O)c3ccc(O)c(NS(C)(=O)=O)c3)CC2)cc1 (stereo not drawn)", "assigned-label": "TRUE"}
{"molecule": "COc1ccc(CCNC2=NS(=O)(=O)N=C2Nc2ccc(N3CCC(NC[C@H](O)COc4ccc(O)cc4)CC3)cc2)cc1", "assigned-label": "FALSE"}

Next item in the queue.
Query: Textbook exercise: given the entry CCCCCCCCNC1=NS(=O)(=O)N=C1Nc1ccc(N2CCC(NC[C@H](O)COc3ccc(O)cc3)CC2)cc1 , state whether its pEC50 is greater than or equal to 7.
Reply: TRUE

* * *

Form field: melting point (one value per entry).

{"compound": "CCCCCCCCNC1=NS(=O)(=O)N=C1Nc1ccc(N2CCC(NC[C@H](O)COc3ccc(O)cc3)CC2)cc1", "melting point": "198 to 204 °C"}
{"compound": "COC(=O)CNC1=NS(=O)(=O)N=C1Nc1ccc(N2CCC(NC[C@H](O)c3ccc(O)c(NS(C)(=O)=O)c3)CC2)cc1", "melting point": "120 °C (dec.)"}
{"compound": "COC(=O)[C@@H](Cc1ccccc1)Nc1c(Nc2ccc(N3CCC(NC[C@H](O)c4ccc(O)c(NS(C)(=O)=O)c4)CC3)cc2)c(=O)c1=O (hydrate or solvate)", "melting point": "240 °C (dec.)"}

Here is the next item to consider.
Query: Could you tell me which melting point is on file for COC(=O)C(Cc1ccccc1)NC1=NS(=O)(=O)N=C1Nc1ccc(N2CCC(NCC(O)c3ccc(O)c(NS(C)(=O)=O)c3)CC2)cc1 (stereo not shown) (hydrate or solvate) ?
Reply: 210 °C (dec.)
